// provenance: patent US20240376151A1

Measured On: CHIP (Homo sapiens)
Construct: N-term truncated CHIP (also known as STUB1, Uniprot ID: Q9UNE7, residues 23-303); made in house; host or cells: E. coli BL21 CodonPlus
Sequence (Q9UNE7 23-303): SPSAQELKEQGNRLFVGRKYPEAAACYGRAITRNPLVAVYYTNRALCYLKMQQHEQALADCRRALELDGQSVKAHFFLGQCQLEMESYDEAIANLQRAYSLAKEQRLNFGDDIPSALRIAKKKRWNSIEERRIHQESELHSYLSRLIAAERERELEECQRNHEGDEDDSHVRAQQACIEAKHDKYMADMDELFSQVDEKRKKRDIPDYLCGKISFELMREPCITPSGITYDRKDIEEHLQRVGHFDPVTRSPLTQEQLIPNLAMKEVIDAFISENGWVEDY
Assay Remarks: Naive Library Presenter Screening (phage, NGS), CHIP
Assay type: binding
Stated Conditions: CHIP clusters (C83, C84); target concentration 1000 nM, first column
Numbered stars: 1 amine (or outer) side, 2 acyl side, 3 side chain; on linkers, the order of the positions; unused ones are H or OH. Bridge positions count the residues as written; N and C are the ends. Ends that are not written are not given here. Phenylene(1,4-NHCOCH2)2 = O=C(C[*:1])Nc1ccc(NC(=O)C[*:2])cc1
Assay Metric: interaction data at Target Concentration 1000

Example entries begin here.
INSERT INTO measurements (biosequence, recorded_result) VALUES
  ('DPAFWSCQFAAATCSHL (linker 7-14 via Phenylene(1,4-NHCOCH2)2 (inferred))', 11),
  ('DPAFDACQFAAAMCDHQ (linker 7-14 via Phenylene(1,4-NHCOCH2)2 (inferred))', 80);

[I] DPAQYNCYFAANICTVD (DPAQYNCYFAANICTVD-NH2; linker 7-14 via Phenylene(1,4-NHCOCH2)2 (inferred))
[II] DPAVHNCSQAASICDVD (linker 7-14 via Phenylene(1,4-NHCOCH2)2 (inferred); not fully specified (C-terminus))
query: Dear colleague, could you let me know whether I or II has the lower recorded interaction data at Target Concentration 1000? Thanks. Provide the label of your selected option as the answer.
result: II

[a] DPAFEQCQFAAAMCLHH (linker 7-14 via Phenylene(1,4-NHCOCH2)2 (inferred))
[b] DPAFERCQLAAAFCYDS (linker 7-14 via Phenylene(1,4-NHCOCH2)2 (inferred))
query: Between a and b , whose recorded interaction data at Target Concentration 1000 is greater? Response format: the label of the selected entry.
result: b

* * *

Measured On: beta-catenin (Homo sapiens, UniProt P35222)
Construct: made in house; host or cells: E. coli BL21 (DE3) pLysS
Sequence (P35222 134-665): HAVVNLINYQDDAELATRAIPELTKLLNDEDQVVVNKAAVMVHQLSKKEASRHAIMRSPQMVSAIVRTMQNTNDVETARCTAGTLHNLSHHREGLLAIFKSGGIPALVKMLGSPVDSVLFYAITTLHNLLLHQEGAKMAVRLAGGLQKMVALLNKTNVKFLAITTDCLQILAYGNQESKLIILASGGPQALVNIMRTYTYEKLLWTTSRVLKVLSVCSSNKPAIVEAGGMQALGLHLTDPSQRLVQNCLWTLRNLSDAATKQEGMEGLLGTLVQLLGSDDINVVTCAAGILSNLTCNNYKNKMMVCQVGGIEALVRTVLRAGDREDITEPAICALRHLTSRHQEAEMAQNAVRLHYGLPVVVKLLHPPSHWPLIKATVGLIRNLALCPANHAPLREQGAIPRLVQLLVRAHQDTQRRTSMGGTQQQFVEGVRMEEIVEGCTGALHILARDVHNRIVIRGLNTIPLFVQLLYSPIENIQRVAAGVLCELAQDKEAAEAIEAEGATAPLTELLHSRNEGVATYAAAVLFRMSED
Assay Remarks: Phage Library Screening with NGS, beta-catenin
Format: binding
Stated Conditions: beta-catenin target concentration 30; no competitor
Assay Metric: Target Concentration 30 (phage screen NGS readout)

Examples with answers:
INSERT INTO assay_data (biosequence, recorded_result) VALUES
  ('DPAHWHCEHAALLCASV', 15),
  ('DPAYWDCTHAALLCNLD', 14),
  ('DPAWWQCDHAALICIAE', 127),
  ('DPAVIQCYQAAFHCDYQ', 0),
  ('DPADNECILAAHICTLA', 5);

[P] DPAIIRCYEAAFYCQNY
[Q] DPAMVTCYEAAYVCQYF
query: API: POST /compare with P and Q ; response names the item with higher Target Concentration 30 (phage screen NGS readout). Record your answer as the label of the chosen record.
result: P

[A] DPAESDCILAAYICYVE
[B] DPAEHDCMLAAHFCRHF
[C] DPATIRCYEAAFMCQYW
query: # desc sort on Target Concentration 30 (phage screen NGS readout) across 3 sequences Please write the labels in the order that was asked for.
result: B, A, C
(B: 55, A: 1, C: 0)
